This section presents compounds with their documented drug sensitivity score values.
# System: Ba/F3 P210-BCR-ABL1 RUNX1wt/wt control (mouse)
# assay.method.text: drug sensitivity score (DSS) (DSS score); higher = more sensitive (stronger growth inhibition); extreme values may be limits of the assay
Form: value (number only, do not type unit).

compound | measurement
Cc1cc(C(C)Nc2ccccc2)c2nc(N3CCOCC3)cc(=O)n2c1 (stereo unspecified) | 0
COc1cccc2c1C(=O)c1c(O)c3c(c(O)c1C2=O)C[C@@](O)(C(C)=O)C[C@@H]3O[C@H]1C[C@H](N)[C@H](O)[C@H](C)O1 | 12.1
CCc1c2c(nc3ccc(O)cc13)-c1cc3c(c(=O)n1C2)COC(=O)[C@]3(O)CC | 26.9
Cn1nnc2c(C(N)=O)ncn2c1=O [Temozolomide] | 0
Cc1c(Cn2c(C)nc3c(C(=O)O)cc(N4CCOCC4)cc32)cccc1C(F)(F)F | 0

Qu. Can you share its drug sensitivity score? I mean this compound: "CCN1CCN(Cc2ccc(Nc3ncc(F)c(-c4cc(F)c5nc(C)n(C(C)C)c5c4)n3)nc2)CC1"
Ans. 3.05

Qu. Also "Cc1cccc(CC(=O)N2CCc3c2ccc(-c2cn(C)c4ncnc(N)c24)c3F)n1" , if possible.
Ans. 2.45

Qu. Also "Cc1nc(Nc2ncc(C(=O)Nc3c(C)cccc3Cl)s2)cc(N2CCN(CCO)CC2)n1" , if possible.
Ans. 24.6

Qu. Also "FC(F)c1nc2ccccc2n1-c1nc(N2CCOCC2)nc(N2CCOCC2)n1" , if possible.
Ans. 5.3

Qu. Also "CC(C)C[C@@H](C(=O)N[C@H](C(=O)OC1CCCC1)c1ccccc1)[C@H](O)C(=O)NO" , if possible.
Ans. 1.85

Qu. Also "C[C@H](Nc1ncnc2[nH]cnc12)c1cc2ccc(F)cc2nc1-c1ccccn1" , if possible.
Ans. 0

Qu. Also "Cc1ccc(-n2nc(C(C)(C)C)cc2NC(=O)Nc2ccc(OCCN3CCOCC3)c3ccccc23)cc1" , if possible.
Ans. 0

Qu. Also "Nc1nc(NC2CC2)cc(-c2cccc(Cl)c2Cl)n1" , if possible.
Ans. 3.6

Qu. Also "COc1cc(NS(C)(=O)=O)ccc1Nc1c2ccccc2nc2ccccc12" , if possible.
Ans. 21.6

Qu. Also "CO[C@H]1C[C@@H]2CC[C@@H](C)[C@@](O)(O2)C(=O)C(=O)N2CCCC[C@H]2C(=O)O[C@H]([C@H](C)C[C@@H]2CC[C@@H](OC(=O)C(C)(CO)CO)[C@H](OC)C2)CC(=O)[C@H](C)/C=C(\C)[C@@H](O)[C@@H](OC)C(=O)[C@H](C)C[C@H](C)/C=C/C=C/C=C/1C" , if possible.
Ans. 0

Qu. Also "CC(=O)OC[C@H]1O[C@@H]([S-])[C@H](OC(C)=O)[C@@H](OC(C)=O)[C@@H]1OC(C)=O.CCP(CC)CC.[Au+]" , if possible.
Ans. 2.8

Qu. Also "C[C@@H](Oc1cc(-n2cnc3ccc(CN4CCN(C)CC4)cc32)sc1C(N)=O)c1ccccc1C(F)(F)F" , if possible.
Ans. 15.8

Qu. Also "Cc1ccc(NC(=O)c2ccc(CN3CCN(C)CC3)cc2)cc1Nc1nccc(-c2cccnc2)n1" , if possible.
Ans. 7.5

Qu. Also "C=C1C[C@@H]2CC[C@@]34C[C@H]5O[C@H]6[C@@H](O3)[C@H]3O[C@H](CC[C@@H]3O[C@H]6[C@H]5O4)CC(=O)C[C@@H]3[C@@H](OC)[C@@H](C[C@H](O)CN)O[C@H]3C[C@H]3O[C@@H](CC[C@@H]1O2)C[C@@H](C)C3=C" , if possible.
Ans. 17.4

Qu. Also O=C1NC(=O)[C@@H](c2cn3c4c(cccc24)CCC3)[C@@H]1c1c[nH]c2ccccc12 [Tivantinib] , if possible.
Ans. 3.25

Qu. Also "Cc1nc(=O)c2cc(CN(C)c3ccc(C(=O)N[C@@H](CCC(=O)O)C(=O)O)s3)ccc2[nH]1" , if possible.
Ans. 17.4

Qu. Also CC(O)(CS(=O)(=O)c1ccc(F)cc1)C(=O)Nc1ccc(C#N)c(C(F)(F)F)c1 (stereo unspecified) [Bicalutamide] , if possible.
Ans. 0

Qu. Also "CC1(C)C(C(=O)Nc2ccc(S(=O)(=O)c3ccc(NC(=O)C4C(C)(C)C4(C)C)cc3)cc2)C1(C)C" , if possible.
Ans. 0

Qu. Also "Cn1cc(C[C@@H](N)C(=O)O)c2ccccc21" , if possible.
Ans. 0
